measured target: GCN2 (Homo sapiens)
Sequence (Q9P2K8 whole entry): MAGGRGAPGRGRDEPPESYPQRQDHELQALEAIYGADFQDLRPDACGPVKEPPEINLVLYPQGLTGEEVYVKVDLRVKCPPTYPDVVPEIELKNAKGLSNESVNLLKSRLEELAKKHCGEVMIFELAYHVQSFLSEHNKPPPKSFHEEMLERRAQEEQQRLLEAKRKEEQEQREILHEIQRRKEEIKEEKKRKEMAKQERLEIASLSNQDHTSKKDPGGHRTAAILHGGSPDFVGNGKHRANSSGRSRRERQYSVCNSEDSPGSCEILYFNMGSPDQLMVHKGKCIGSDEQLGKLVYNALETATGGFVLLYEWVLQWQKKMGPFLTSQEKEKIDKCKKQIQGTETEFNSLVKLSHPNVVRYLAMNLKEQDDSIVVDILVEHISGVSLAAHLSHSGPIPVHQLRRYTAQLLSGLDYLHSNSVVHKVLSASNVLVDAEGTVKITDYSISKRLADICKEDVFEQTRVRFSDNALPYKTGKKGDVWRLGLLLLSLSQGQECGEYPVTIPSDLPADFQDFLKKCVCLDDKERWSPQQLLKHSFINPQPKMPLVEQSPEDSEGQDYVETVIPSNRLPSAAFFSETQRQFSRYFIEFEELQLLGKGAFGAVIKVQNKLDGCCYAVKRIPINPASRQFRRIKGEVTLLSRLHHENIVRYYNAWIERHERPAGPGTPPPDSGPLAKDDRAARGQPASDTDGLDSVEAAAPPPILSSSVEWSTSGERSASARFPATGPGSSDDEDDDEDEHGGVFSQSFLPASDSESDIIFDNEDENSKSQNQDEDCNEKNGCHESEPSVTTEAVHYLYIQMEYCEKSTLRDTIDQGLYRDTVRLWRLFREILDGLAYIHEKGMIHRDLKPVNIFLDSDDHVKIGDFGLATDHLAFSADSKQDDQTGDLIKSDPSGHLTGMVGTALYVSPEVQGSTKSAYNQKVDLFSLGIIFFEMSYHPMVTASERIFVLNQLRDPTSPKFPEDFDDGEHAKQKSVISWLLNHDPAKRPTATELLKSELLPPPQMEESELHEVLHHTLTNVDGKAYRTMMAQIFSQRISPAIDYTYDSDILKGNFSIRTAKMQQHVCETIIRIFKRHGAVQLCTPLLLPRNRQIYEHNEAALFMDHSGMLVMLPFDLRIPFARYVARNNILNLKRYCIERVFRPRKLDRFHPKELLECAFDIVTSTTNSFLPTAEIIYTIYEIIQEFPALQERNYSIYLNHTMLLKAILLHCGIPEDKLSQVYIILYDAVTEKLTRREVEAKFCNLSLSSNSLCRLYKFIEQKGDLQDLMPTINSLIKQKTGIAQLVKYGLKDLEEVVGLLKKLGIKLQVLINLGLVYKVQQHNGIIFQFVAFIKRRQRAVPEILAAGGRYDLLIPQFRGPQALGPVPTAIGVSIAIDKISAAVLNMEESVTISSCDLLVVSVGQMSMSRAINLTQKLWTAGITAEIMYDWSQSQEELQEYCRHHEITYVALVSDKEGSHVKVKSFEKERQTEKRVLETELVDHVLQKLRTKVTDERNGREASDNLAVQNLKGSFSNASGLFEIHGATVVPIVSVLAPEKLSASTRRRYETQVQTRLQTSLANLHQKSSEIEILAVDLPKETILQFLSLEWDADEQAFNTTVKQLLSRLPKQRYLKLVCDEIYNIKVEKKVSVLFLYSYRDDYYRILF
assay remarks: GCN2 enzymatic endpoint assay: phosphorylation of GFP-eIF2α measured by TR-FRET (Lanthascreen)
Type: biochemical
condition context: tested as described in Example 77; compound and/or hydrochloride, dihydrochloride or trifluoroacetic acid salt; read-out: IC 50 Activity
pIC50: −log10 of the molar value.
readout: pIC50

Completed entries (count: 2):
compound	pIC50
CNC(=O)[C@]1(C)CC[C@@H](Nc2ncc3c(Br)nn(-c4ccc(-c5nncs5)cc4)c3n2)C1	6.70 to 7.60
C[C@@]1(C(=O)NCCO)CC[C@@H](Nc2ncc3c(Br)nn(-c4cc(F)c5ncccc5c4)c3n2)C1	> 7.60

Value of pIC50 reported for the compound CNC(=O)CC1CC(Nc2ncc3c(Br)nn(-c4ccc(-c5nnc(C)s5)c(CCC#N)c4)c3n2)C1 (stereo not shown) is 6.70 to 7.60

Value of pIC50 reported for the compound CNC(=O)[C@]1(CC(F)F)CC[C@@H](Nc2ncc3c(Br)nn(-c4cc(CC(C)(C)O)c5ncccc5c4)c3n2)C1 is 6.70 to 7.60

###

Entries and their IC50
measured target: GCN2 (Homo sapiens)
assay remarks: GCN2 enzymatic endpoint assay: phosphorylation of GFP-eIF2α measured by TR-FRET (Lanthascreen)
Type: biochemical
condition context: tested as described in Example 77; compound and/or hydrochloride, dihydrochloride or trifluoroacetic acid salt; read-out: IC 50 Activity

compound	IC50
CNC(=O)[C@]1(CCCOC)CC[C@@H](Nc2ncc3c(Br)nn(-c4cc(F)c5ncccc5c4)c3n2)C1	< 25 nM
O=C1OCC[C@]12CC[C@@H](Nc1ncc3c(Br)nn(-c4cc(F)c5ncccc5c4)c3n1)C2	< 25 nM
CNC(=O)[C@@]1(C)CC[C@@H](Nc2ncc3c(Br)nn(-c4ccc5nc(OC)ccc5c4)c3n2)C1	< 25 nM

Value of IC50 reported for the compound CNC(=O)[C@]1(C)CC[C@@H](Nc2ncc3c(Br)nn(-c4ccc(-c5ncco5)c([C@H](C)CN)c4)c3n2)C1 is 25 to 200 nM

Value of IC50 reported for the compound CNC(=O)[C@]1(CC(F)F)CC[C@@H](Nc2ncc3c(Br)nn(-c4ccc(-c5cnccn5)cc4)c3n2)C1 is 25 to 200 nM

Value of IC50 reported for the compound C[C@@H]1CN(C(=O)[C@@H]2CC[C@@H](Nc3ncc4c(Br)nn(-c5ccc6ncccc6c5)c4n3)C2)C[C@H](C)N1 is 25 to 200 nM

Value of IC50 reported for the compound CNC(=O)C1(CC(F)(F)F)CC[C@@H](Nc2ncc3c(Br)nn(-c4ccc(-c5nnc(C)s5)c(CCC#N)c4)c3n2)C1 (some centres unmarked) is 25 to 200 nM

Value of IC50 reported for the compound CNC(=O)[C@]1(C)CC[C@@H](Nc2ncc3c(Br)nn(-c4cc(Br)cc(CO)c4)c3n2)C1 is 25 to 200 nM

###

measured target: UniProtKB Q9P2K8
assay remarks: GCN2 enzymatic endpoint assay: phosphorylation of GFP-eIF2α measured by TR-FRET (Lanthascreen)
Format: biochemical
condition context: GCN2 biochemical IC50; 4 nM GCN2, 2 μM ATP, 80 nM GFP-eIF2α, 90 min RT; read-out: GCN2 activity
pIC50: −log10 of the molar value.
readout: pIC50

Completed entries (count: 4):
compound	measured target	pIC50
Cc1nnc(-c2ccc(-n3nc(Br)c4cnc(N[C@@H]5CC[C@@](C)(C(N)=O)C5)nc43)cc2)s1	UniProtKB Q9P2K8	6.70 to 7.60
CNC(=O)[C@]1(CC(F)F)CC[C@@H](Nc2ncc3c(Br)nn(-c4ccc(-c5nnc(C)s5)cc4)c3n2)C1	UniProtKB Q9P2K8	> 7.60
CNS(=O)(=O)[C@@H]1CC[C@@H](Nc2ncc3c(Br)nn(-c4ccc5ncccc5c4)c3n2)C1 (single isomer, unassigned)	UniProtKB Q9P2K8	6.70 to 7.60
Brc1nn(-c2ccc3ncccc3c2)c2nc(N[C@@H]3CC[C@@H](c4ncc[nH]4)C3)ncc12	UniProtKB Q9P2K8	6.70 to 7.60

Value of pIC50 reported for the compound CNC(=O)[C@]1(C)CC[C@@H](Nc2ncc3c(Br)nn(-c4ccc(-c5nnc(C)o5)c(C#N)c4)c3n2)C1 is > 7.60

Value of pIC50 reported for the compound Cc1nnc(-c2ccc(-n3nc(Br)c4cnc(N[C@@H]5CC[C@@H](P(C)(C)=O)C5)nc43)cc2)s1 is 6.70 to 7.60

Value of pIC50 reported for the compound COCCNC(=O)[C@@H]1CC[C@@H](Nc2ncc3c(Br)nn(-c4ccc5ncccc5c4)c3n2)C1 is > 7.60

Value of pIC50 reported for the compound CNC(=O)[C@]1(C)CC[C@@H](Nc2ncc3c(Br)nn(-c4ccc5nnccc5c4)c3n2)C1 is > 7.60
